Molecular target: PKB-PIF (Homo sapiens, UniProt P31751)
Construct: fusion partner; made in house
Sequence (P31751 with tags, fused parts or gaps limits assumed): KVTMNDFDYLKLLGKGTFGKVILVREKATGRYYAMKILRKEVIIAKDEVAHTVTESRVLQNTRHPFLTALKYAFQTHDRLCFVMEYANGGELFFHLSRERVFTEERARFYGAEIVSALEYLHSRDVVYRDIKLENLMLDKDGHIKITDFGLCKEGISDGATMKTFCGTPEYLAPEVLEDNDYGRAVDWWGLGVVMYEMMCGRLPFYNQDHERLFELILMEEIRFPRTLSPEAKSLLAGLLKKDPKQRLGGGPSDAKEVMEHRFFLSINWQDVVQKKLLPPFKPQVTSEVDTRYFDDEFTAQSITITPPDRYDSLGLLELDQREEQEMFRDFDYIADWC
Assay: Measurement of PKB kinase inhibitory activity (IC50), radiometric filter plate assay
Type: biochemical
pIC50: −log10 of the molar value.
readout: pIC50

Task: Please report the recorded pIC50 for NCCc1cccc(-c2ncnc3[nH]cnc23)c1 .
Result: > 5.00

====

Target: PKA catalytic domain (Homo sapiens, UniProt P17612)
readout: IC50

Take a look at these entries with their results.
{"columns": ["compound", "IC50"],
 "data": [
  ["NC(c1ccc(Cl)cc1)C1CCN(c2ccnc3[nH]ccc23)CC1 (stereo not drawn) [Example 29]", "< 10 µM"],
  ["NC(c1ccc(Cl)cc1)C1CCN(c2ncnc3[nH]c(=O)[nH]c23)CC1 (stereo not drawn) [Example 14]", "< 10 µM"],
  ["CNCc1cccc(-c2ncnc3[nH]cnc23)c1 [Example 7, Methyl-(3-(9H-purin-6-yl)benzyl)amine]", "< 10 µM"],
  ["Clc1ccc(C2(c3ccc(-c4ncnc5[nH]cnc45)cc3)CCNCC2)cc1 [Example 22]", "< 10 µM"]
]}

Could I get IC50 for every one of these entries?
1. Clc1ccc(C2(c3ccc(-c4ncnc5[nH]ccc45)cc3)CCNCC2)cc1 [Example 23]
2. NC(CCNc1ncnc2[nH]c(=O)[nH]c12)c1ccc(F)cc1 (stereo not drawn) [Example 4]

Result:
1. < 10 µM
2. < 150 µM
